study.target: T1, ZFP SBS#450 (synthetic)
T1 chain: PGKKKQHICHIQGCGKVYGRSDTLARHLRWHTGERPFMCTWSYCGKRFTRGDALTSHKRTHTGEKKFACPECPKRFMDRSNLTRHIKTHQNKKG
method.summary: EMSA
cond: tags: MBP fusion
measured.metric: pKd
Lab note: report pKd as minus log10 of the concentration in molar units, number only.

# pKd lookup, item GACTTGGTGC (dsDNA) DNA 1: GACTTGGTGC DNA 2: GCACCAAGTC
6.89

These measurements were taken from patent US20030068675.
